- system under test: PRMT5 (Homo sapiens, UniProt O14744)
- Construct: purchased Viva (custom protein)
- Sequence (O14744 whole entry): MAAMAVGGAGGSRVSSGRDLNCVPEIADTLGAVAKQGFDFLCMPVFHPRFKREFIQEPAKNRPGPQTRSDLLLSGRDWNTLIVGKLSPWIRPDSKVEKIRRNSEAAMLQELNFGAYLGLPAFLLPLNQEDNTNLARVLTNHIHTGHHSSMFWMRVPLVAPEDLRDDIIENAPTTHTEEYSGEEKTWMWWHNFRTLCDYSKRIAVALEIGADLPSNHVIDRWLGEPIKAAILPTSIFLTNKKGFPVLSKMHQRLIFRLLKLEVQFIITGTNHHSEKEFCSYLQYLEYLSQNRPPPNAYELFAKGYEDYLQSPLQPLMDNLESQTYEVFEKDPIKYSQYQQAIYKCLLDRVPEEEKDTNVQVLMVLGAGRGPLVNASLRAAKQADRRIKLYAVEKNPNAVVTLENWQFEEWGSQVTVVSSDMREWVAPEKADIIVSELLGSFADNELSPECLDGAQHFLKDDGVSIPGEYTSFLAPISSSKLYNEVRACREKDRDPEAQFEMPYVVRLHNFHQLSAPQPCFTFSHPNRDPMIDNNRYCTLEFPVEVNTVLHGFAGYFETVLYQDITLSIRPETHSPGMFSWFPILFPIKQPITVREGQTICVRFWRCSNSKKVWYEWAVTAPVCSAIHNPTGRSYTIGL
- Sequence (Q9BQA1 whole entry partner): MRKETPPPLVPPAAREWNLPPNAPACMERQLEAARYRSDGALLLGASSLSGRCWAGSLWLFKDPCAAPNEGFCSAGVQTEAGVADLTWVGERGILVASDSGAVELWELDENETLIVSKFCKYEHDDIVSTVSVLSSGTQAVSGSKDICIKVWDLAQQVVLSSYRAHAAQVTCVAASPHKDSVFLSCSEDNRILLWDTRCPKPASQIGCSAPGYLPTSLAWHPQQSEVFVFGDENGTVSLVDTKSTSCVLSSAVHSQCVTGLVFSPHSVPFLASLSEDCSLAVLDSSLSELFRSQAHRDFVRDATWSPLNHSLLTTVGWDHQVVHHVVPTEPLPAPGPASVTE
- experiment: PRMT5 IC50 assay with no cofactor
- Format: biochemical
pIC50: −log10 of the molar value.
# key: entry, value: pIC50

compound	pIC50
CC(=O)N(C)[C@H]1CC[C@H](Nc2cc(C(=O)NC[C@H](O)CN3CCc4c(ccc(OCc5cnco5)c4C)C3)ncn2)CC1	≤ 5.30
CC(=O)N1CCN(c2cc(C(=O)NC[C@H](O)CN3CCc4c(ccc(OCc5ocnc5C)c4C)C3)cc(NC3CCC3)n2)CC1	5.30 to 6.30
CCCN(C)c1cc(C(=O)NC[C@H](O)CN2CCc3c(ccc(OCc4ocnc4C)c3C)C2)cc(NC2CCC2)n1	≤ 5.30
O=C(NC[C@H](O)CN1CCc2c(ccc(OCc3cnco3)c2Cl)C1)c1ccnc(NC2CC3(C2)CC3(F)F)c1 (stereo partly shown)	5.30 to 6.30
